- assayed-target: NEK7 (Homo sapiens (Human), UniProt Q8TDX7+Q96SW2)
- Sequence (Q8TDX7 whole entry): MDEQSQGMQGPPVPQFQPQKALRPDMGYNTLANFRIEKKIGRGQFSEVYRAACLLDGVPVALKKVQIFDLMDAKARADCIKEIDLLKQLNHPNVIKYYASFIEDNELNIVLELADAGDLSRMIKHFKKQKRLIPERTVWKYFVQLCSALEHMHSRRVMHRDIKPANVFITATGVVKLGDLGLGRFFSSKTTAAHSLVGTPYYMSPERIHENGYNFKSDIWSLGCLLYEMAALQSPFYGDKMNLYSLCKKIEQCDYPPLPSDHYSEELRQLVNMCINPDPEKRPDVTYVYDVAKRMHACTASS
- Sequence (Q96SW2 whole entry): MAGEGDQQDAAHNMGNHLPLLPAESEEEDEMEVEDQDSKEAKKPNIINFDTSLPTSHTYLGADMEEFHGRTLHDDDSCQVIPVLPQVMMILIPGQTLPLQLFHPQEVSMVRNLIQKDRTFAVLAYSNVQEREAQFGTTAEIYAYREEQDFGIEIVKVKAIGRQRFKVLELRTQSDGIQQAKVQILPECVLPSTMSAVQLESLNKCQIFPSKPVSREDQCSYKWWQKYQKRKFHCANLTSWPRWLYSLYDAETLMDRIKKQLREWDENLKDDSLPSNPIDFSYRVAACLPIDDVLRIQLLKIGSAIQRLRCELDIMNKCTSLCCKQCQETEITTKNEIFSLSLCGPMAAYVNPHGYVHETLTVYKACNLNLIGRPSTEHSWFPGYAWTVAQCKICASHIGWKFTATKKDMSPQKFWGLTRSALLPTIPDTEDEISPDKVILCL
- Sequence (Q16531 2-1140 partner): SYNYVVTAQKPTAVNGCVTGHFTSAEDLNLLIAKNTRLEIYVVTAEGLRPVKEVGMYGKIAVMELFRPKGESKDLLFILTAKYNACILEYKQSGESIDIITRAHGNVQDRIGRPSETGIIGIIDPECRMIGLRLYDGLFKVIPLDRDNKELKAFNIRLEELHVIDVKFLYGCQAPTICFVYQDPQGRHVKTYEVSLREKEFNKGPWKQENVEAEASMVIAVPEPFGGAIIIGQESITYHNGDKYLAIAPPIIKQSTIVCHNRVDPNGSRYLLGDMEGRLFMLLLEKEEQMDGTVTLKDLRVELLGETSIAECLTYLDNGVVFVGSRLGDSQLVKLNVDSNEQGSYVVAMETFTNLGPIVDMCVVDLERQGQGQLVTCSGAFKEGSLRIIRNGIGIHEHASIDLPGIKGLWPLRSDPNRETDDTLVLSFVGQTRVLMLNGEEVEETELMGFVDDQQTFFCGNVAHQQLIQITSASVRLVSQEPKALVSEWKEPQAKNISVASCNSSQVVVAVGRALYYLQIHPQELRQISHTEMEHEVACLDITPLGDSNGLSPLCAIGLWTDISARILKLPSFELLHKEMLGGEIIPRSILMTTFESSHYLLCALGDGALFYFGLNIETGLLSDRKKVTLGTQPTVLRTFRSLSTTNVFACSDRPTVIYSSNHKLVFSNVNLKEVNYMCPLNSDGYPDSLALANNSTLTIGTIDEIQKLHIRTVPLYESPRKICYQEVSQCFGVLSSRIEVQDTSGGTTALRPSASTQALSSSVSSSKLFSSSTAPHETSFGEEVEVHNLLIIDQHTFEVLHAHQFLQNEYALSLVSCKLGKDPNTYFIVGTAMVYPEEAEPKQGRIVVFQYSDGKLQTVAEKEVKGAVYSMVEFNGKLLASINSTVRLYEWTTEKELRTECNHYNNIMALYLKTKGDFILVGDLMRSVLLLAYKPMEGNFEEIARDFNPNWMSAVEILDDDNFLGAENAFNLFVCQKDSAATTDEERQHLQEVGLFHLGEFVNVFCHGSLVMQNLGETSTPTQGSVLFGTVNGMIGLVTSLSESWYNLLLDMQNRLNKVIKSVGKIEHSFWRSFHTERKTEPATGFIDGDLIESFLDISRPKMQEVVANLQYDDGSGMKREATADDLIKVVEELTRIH
- assay-remarks: NEK7 NanoBiT degradation assay in Cal51 NEK7 NanoBiT cell line
- Format: cell-based
- condition-info: Cal51 NEK7 NanoBiT cells, 24 hours; read-out: NEK7 NanoBiT DC50
Assignment: determine reported DC50 for the given compounds.
Give bare numbers, in nM.

compound	unit-name	DC50
O=C1CCC(c2c(Cl)cc(CNC(=O)C3(c4ccccc4)CCC3)cc2Cl)C(=O)N1 (stereo not shown)	nM	2
CC(C)(C(=O)NCc1cc(Cl)c(C2CCC(=O)NC2=O)c(Cl)c1)c1cnco1 (stereo not shown)	nM	56

Below are 2 compounds. Give each one its DC50.
1. CCOc1ccc(C(C)(C)C(=O)NCc2cc(F)c(C3CCC(=O)NC3=O)c(Cl)c2)nn1 (stereo not shown)
2. Cc1nnc(C2(C(=O)NCc3cc(Cl)c(C4CCC(=O)NC4=O)c(Cl)c3)CCC2)o1 (stereo not shown)

1. 4
2. 556

====

- assayed-target: NEK7 (Homo sapiens (Human), UniProt Q8TDX7+Q96SW2)
- assay-remarks: NEK7 NanoBiT degradation assay in Cal51 NEK7 NanoBiT cell line
- Assay type: cell-based
- condition-info: CAL-51; NEK7 degradation, Cal51 NEK7 NanoBiT cells, 24 hours; read-out: NanoBiT Dmax
assay-endpoint: Dmax

Field: example entries. Status: answers known.
molecule	assayed-target	Dmax
CC(C)(C(=O)NCc1cc(Cl)c(C2CCC(=O)NC2=O)c(Cl)c1)c1nc2ccccc2o1 (stereo not shown)	NEK7 (Homo sapiens (Human), UniProt Q8TDX7+Q96SW2)	> 75%
CC(C)(C(=O)NCc1cc(Cl)c(C2CCC(=O)NC2=O)c(Cl)c1)c1ccsc1 (stereo not shown)	NEK7 (Homo sapiens (Human), UniProt Q8TDX7+Q96SW2)	> 75%
CN(C)S(=O)(=O)c1ccc(C(C)(C)C(=O)NCc2cc(Cl)c(C3CCC(=O)NC3=O)c(Cl)c2)cc1 (stereo not shown)	NEK7 (Homo sapiens (Human), UniProt Q8TDX7+Q96SW2)	> 75%

Let us examine a further case.
Recorded Dmax (molecule CC(C)(C(=O)NCc1cc(Cl)c(C2CCC(=O)NC2=O)c(Cl)c1)c1ccc(S(N)(=O)=O)cc1F (stereo not shown) ): > 75%

====

Would you kindly list DC50 for each of these molecules?
- assayed-target: NEK7 (Homo sapiens (Human), UniProt Q8TDX7+Q96SW2)
- assay-remarks: NEK7 NanoBiT degradation assay in Cal51 NEK7 NanoBiT cell line
- Format: cell-based
- condition-info: Cal51 NEK7 NanoBiT cells, 24 hours; read-out: NEK7 NanoBiT DC50
Numbers only, in nM.

Please look at the items below and tell me DC50 for each one, in order.
1. CC(C)(C(=O)NCc1cc(Cl)c(C2CCC(=O)NC2=O)c(Cl)c1)c1cccc2ocnc12 (stereo not shown)
2. CC(C)(C(=O)NCc1cc(Cl)c(C2CCC(=O)NC2=O)c(Cl)c1)c1cc(C2CC2)ncn1 (stereo not shown)
3. CC(C)(C(=O)NCc1ccc(C2CCC(=O)NC2=O)c(Cl)c1)c1ccc(Cl)nc1 (stereo not shown)
4. O=C1CC(C(=O)NCc2cc(Cl)c(C3CCC(=O)NC3=O)c(Cl)c2)(c2ccc(F)cc2)C1 (stereo not shown)

1: 7; 2: 88; 3: 58; 4: 1
